src = patent US8586579B2

target: human D2 receptor (Homo sapiens (Human), UniProt P14416); experiment: Radioligand binding assay, [3H]-spiperone, human D2 receptor; settings: membranes of HEK293 EBNA cells expressing human D2; 0.7 nM [3H]-spiperone
Sequence (P14416 whole entry): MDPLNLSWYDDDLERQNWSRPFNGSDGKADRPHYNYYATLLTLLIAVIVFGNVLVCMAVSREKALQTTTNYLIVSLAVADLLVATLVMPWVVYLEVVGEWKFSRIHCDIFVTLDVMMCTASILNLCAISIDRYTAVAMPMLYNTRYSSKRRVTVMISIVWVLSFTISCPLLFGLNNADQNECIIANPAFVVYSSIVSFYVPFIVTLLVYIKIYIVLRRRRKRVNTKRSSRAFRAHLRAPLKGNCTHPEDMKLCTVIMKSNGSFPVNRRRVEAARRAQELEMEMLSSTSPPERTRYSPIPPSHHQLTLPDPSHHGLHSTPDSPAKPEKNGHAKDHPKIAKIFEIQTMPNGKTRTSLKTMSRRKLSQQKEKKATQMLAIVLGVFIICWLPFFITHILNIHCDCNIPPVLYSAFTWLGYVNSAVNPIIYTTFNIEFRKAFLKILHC
Reported Ki by item:

compound	subject.of.test	units.text	Ki
CO[C@@H](C)C(=O)N[C@H]1CC[C@H](CCN2CCN(c3nccc4c3CCO4)CC2)CC1 [Example 137]	human D2 receptor (Homo sapiens (Human), UniProt P14416)	nM	788
Cc1cnc(N2CCN(CC[C@H]3CC[C@H](NC(=O)CC4CCOCC4)CC3)CC2)c2c1OCC2 [Example 110]	human D2 receptor (Homo sapiens (Human), UniProt P14416)	nM	2950
O=S(=O)(N[C@H]1CC[C@H](CCN2CCN(c3nccc4c3CCO4)CC2)CC1)c1ccc(F)cc1 [Example 50]	human D2 receptor (Homo sapiens (Human), UniProt P14416)	nM	240
COCCC(=O)N[C@H]1CC[C@H](CCN2CCN(c3nccc4occc34)CC2)CC1 [Example 5]	human D2 receptor (Homo sapiens (Human), UniProt P14416)	nM	1350
O=C(N[C@H]1CC[C@H](CCN2CCN(c3nccc4c3CCO4)CC2)CC1)C1(O)CCC1 [Example 123]	human D2 receptor (Homo sapiens (Human), UniProt P14416)	nM	959
CC(=O)N[C@H]1CC[C@H](CCN2CCN(c3ncc(C)c4c3CCO4)CC2)CC1 [Example 108]	human D2 receptor (Homo sapiens (Human), UniProt P14416)	nM	2310
O=C(CCO)N[C@H]1CC[C@H](CCN2CCN(c3nccc4c3CCO4)CC2)CC1 [Example 41]	human D2 receptor (Homo sapiens (Human), UniProt P14416)	nM	734
COC(CC(=O)N[C@H]1CC[C@H](CCN2CCN(c3nccc4c3CCO4)CC2)CC1)OC [Example 113]	human D2 receptor (Homo sapiens (Human), UniProt P14416)	nM	1380
CCS(=O)(=O)N[C@H]1CC[C@H](CCN2CCN(c3nccc4occc34)CC2)CC1 [Example 16]	human D2 receptor (Homo sapiens (Human), UniProt P14416)	nM	780
COCC(=O)N[C@H]1CC[C@H](CCN2CCN(c3nccc4sccc34)CC2)CC1 [Example 22]	human D2 receptor (Homo sapiens (Human), UniProt P14416)	nM	220
Cc1cc2c(c(N3CCN(CC[C@H]4CC[C@H](NC(=O)C5CCOCC5)CC4)CC3)n1)CCO2 [Example 101]	human D2 receptor (Homo sapiens (Human), UniProt P14416)	nM	1950
O=C(N[C@H]1CC[C@H](CCN2CCN(c3nccc4c3CCO4)CC2)CC1)c1ccc(N2CCCCC2)cc1 [Example 56]	human D2 receptor (Homo sapiens (Human), UniProt P14416)	nM	5340
COC(CCC(=O)N[C@H]1CC[C@H](CCN2CCN(c3nccc4c3CCO4)CC2)CC1)OC [Example 114]	human D2 receptor (Homo sapiens (Human), UniProt P14416)	nM	2370
O=C(C[C@H]1CC[C@H](O)CC1)N[C@H]1CC[C@H](CCN2CCN(c3nccc4occc34)CC2)CC1 [Example 3]	human D2 receptor (Homo sapiens (Human), UniProt P14416)	nM	1540
CO[C@H]1CC[C@H](CC(=O)N[C@H]2CC[C@H](CCN3CCN(c4nccc5sccc45)CC3)CC2)CC1 [Example 20]	human D2 receptor (Homo sapiens (Human), UniProt P14416)	nM	302
CC(=O)N[C@H]1CC[C@H](CCN2CCN(c3nccc4c3CCO4)CC2)CC1 [Example 32]	human D2 receptor (Homo sapiens (Human), UniProt P14416)	nM	770
